Recorded measurements of IC50, one per entry
Biological target: hepatic lipase (HL) (Homo sapiens (Human), UniProt P11150)
Sequence (P11150 23-499, species assumed): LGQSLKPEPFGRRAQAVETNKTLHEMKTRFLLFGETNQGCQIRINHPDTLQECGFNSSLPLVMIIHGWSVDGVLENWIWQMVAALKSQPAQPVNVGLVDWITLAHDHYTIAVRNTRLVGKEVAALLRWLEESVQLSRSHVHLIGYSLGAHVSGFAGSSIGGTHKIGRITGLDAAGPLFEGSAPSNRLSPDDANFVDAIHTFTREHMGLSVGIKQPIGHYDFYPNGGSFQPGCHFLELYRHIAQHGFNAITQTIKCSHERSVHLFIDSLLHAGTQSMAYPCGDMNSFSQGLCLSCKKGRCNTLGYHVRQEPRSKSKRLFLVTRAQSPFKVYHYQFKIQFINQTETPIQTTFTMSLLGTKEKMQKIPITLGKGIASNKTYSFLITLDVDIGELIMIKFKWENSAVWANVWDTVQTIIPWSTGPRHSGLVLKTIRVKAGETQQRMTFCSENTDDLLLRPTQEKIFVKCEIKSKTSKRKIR
Assay: HL assay: hepatic lipase activity with fluorescent substrate A10070 in DMPG vesicles
Type: biochemical
Details: HL partially purified from conditioned media of COS cells; 30 min incubation with compound at 37° C.; A10070/DMPG vesicles
Protocol: Endothelial lipase (EL) and hepatic lipase (HL) activities were measured using a fluorescent substrate, A10070, (Invitrogen, CA) doped into an artificial vesicle containing DMPG (Avanti Polar Lipids) as the excipient. […] The enzymatic assay was measured using 384-well white Optiplates. […] The reaction rates were measured on a Gemini plate reader with an excitation wavelength of 490 nm and an emission wavelength of 530 nm. […]
measuredParameter: IC50 (µM)

| compound | studySystem | reportedValue |
| --- | --- | --- |
| CS(=O)(=O)C(C(=O)NCCS(N)(=O)=O)c1nc2ccc(-c3ccc(O)nc3)cc2s1 (centres unmarked) | hepatic lipase (HL) (Homo sapiens (Human), UniProt P11150) | 0.155 |
| COCCn1cc(-c2ccc3nc(C(C(=O)NCCS(N)(=O)=O)S(C)(=O)=O)sc3c2)cn1 (centres unmarked) | hepatic lipase (HL) (Homo sapiens (Human), UniProt P11150) | 0.995 |
| CCNC(=O)CNC(=O)C(c1nc2ccc(-c3ccc(F)nc3)cc2s1)S(=O)(=O)CCOC (centres unmarked) | hepatic lipase (HL) (Homo sapiens (Human), UniProt P11150) | 0.46 |
| CC(C)(C)NC(=O)c1ccc(-c2ccc3nc(C(C(=O)NCCS(N)(=O)=O)S(C)(=O)=O)sc3c2)cc1 (centres unmarked) | hepatic lipase (HL) (Homo sapiens (Human), UniProt P11150) | 0.257 |
| COCCN(C)C(=O)c1ccc(-c2ccc3nc(C(C(=O)NCCS(N)(=O)=O)S(C)(=O)=O)sc3c2)cc1 (centres unmarked) | hepatic lipase (HL) (Homo sapiens (Human), UniProt P11150) | 0.077 |
| Cc1cc2nc(C(C(=O)NCCS(N)(=O)=O)S(C)(=O)=O)sc2cc1-c1cnn(C)c1 (centres unmarked) | hepatic lipase (HL) (Homo sapiens (Human), UniProt P11150) | 0.141 |
| CC1(O)CN(C(=O)c2ccc(-c3ccc4nc(C(C(=O)NCCS(N)(=O)=O)S(C)(=O)=O)sc4c3)cc2)C1 (centres unmarked) | hepatic lipase (HL) (Homo sapiens (Human), UniProt P11150) | 0.402 |
| NS(=O)(=O)CCNC(=O)C(c1nc2ccc(C(=O)N3CCC(F)(F)C3)cc2s1)S(=O)(=O)CCC(F)(F)F (centres unmarked) | hepatic lipase (HL) (Homo sapiens (Human), UniProt P11150) | 10.1 |
